# System under test: T1, RBFOX1 RRM RbFoxmut (Fox-RRM*) (Homo sapiens, UniProt Q9NWB1 109-208, R118D;E147R;N151S;E152T)
# T1 sequence: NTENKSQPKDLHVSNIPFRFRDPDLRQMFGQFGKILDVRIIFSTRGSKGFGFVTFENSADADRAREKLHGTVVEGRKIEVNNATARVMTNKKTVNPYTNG
# Protocol description: EMSA; HiTS-Eq, 1 nM pool, 10 min; buffer printed only for the single-RNA assays: 10 mM Tris pH 7.5, 150 mM NaCl, 3.4 mM EDTA, 0.001% NP-40, 30 C
# Condition details: tags: His6 N-terminal (pET28a); label: 5' 32P
Whole data set: some 16,000 sequences, median “ka relative to ugcaugu” near 0.096, cut for the highest 2% near 0.35. The sample holds the highest values, similar sequences and a random draw of the others, so the mix is not that of the screen.
Property: binding signal

{"Binder": "GCCUUUU (DNA:RNA) RNA: GGGAGACCGGAAUUCAGAUUGUCCGCCUUUUUUAAAUCCCGUCGUAGCCACCA DNA 1: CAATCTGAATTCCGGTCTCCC DNA 2: TGGTGGCTACGACGGGATT", "Reading": "0.0724 KA relative to UGCAUGU"}
{"Binder": "GCUUGCC (DNA:RNA) RNA: GGGAGACCGGAAUUCAGAUUGUCCGCUUGCCUUAAAUCCCGUCGUAGCCACCA DNA 1: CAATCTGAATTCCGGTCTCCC DNA 2: TGGTGGCTACGACGGGATT", "Reading": "0.239 KA relative to UGCAUGU"}
